Tested on: Escherichia coli TOP10
Experiment: shrunken log2 fold change of peptide-encoding DNA abundance (4.5 h post-induction vs induction); higher = less antimicrobial activity (less host growth inhibition)
Details: time post-induction: 4.5 h; library: site-saturation at positions 5, 18, 19, 20
Quantity Measured: shrunken log2 fold change

[[record]]
residues = "RRIRDRPPRLPRPRPRPPGMPRP"
measured_result = 0.201

[[record]]
residues = "RRIRTRPPRLPRPRPRPNRWPRP"
measured_result = -0.0997

[[record]]
residues = "RRIRHRPPRLPRPRPRPPNSPRP"
measured_result = -0.201

[[record]]
residues = "RRIRGRPPRLPRPRPRPVGRPRP"
measured_result = 0.842

[[record]]
residues = "RRIRYRPPRLPRPRPRPQPKPRP"
measured_result = -0.0232

[[record]]
residues = "RRIRPRPPRLPRPRPRPNEIPRP"
measured_result = -0.139

[[record]]
residues = "RRIRTRPPRLPRPRPRPDSIPRP"
measured_result = -0.0295

[[record]]
residues = "RRIRTRPPRLPRPRPRPPLQPRP"
measured_result = 0.369

[[record]]
residues = "RRIRPRPPRLPRPRPRPQDDPRP"
measured_result = -0.367

[[record]]
residues = "RRIRKRPPRLPRPRPRPQSRPRP"
measured_result = 0.0866

[[record]]
residues = "RRIRVRPPRLPRPRPRPDHSPRP"
measured_result = -0.252

[[record]]
residues = "RRIRVRPPRLPRPRPRPLGNPRP"
measured_result = -0.424

[[record]]
residues = "RRIRHRPPRLPRPRPRPVYFPRP"
measured_result = -0.508

[[record]]
residues = "RRIRRRPPRLPRPRPRPINFPRP"
measured_result = -0.0729

[[record]]
residues = "RRIRLRPPRLPRPRPRPTIHPRP"
measured_result = -0.3

[[record]]
residues = "RRIRERPPRLPRPRPRPWERPRP"
measured_result = 0.0496

[[record]]
residues = "RRIRGRPPRLPRPRPRPAPHPRP"
measured_result = 0.95

[[record]]
residues = "RRIRSRPPRLPRPRPRPGADPRP"
measured_result = 0.463

[[record]]
residues = "RRIRMRPPRLPRPRPRPMKLPRP"
measured_result = -0.13

[[record]]
residues = "RRIRRRPPRLPRPRPRPMSAPRP"
measured_result = 0.128

[[record]]
residues = "RRIRRRPPRLPRPRPRPLEFPRP"
measured_result = -0.0524

[[record]]
residues = "RRIRGRPPRLPRPRPRPPHAPRP"
measured_result = 1.37

[[record]]
residues = "RRIRSRPPRLPRPRPRPFYDPRP"
measured_result = -0.254


* * *

Test system: Escherichia coli TOP10;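 further: peptides expressed intracellularly from a pBAD plasmid library in pooled LB shake-flask culture, induced with 0.3% L-arabinose, DNA abundance read by NGS, three biological replicates, DESeq2 with apeglm shrinkage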
Assay: shrunken log2 fold change of peptide-encoding DNA abundance (4.5 h post-induction vs induction); higher = less antimicrobial activity (less host growth inhibition)
Conditions: time post-induction: 4.5 h; library: site-saturation at positions 5, 18, 19, 20
Each entry below carries its recorded shrunken log2 fold change.
Quantity Measured: shrunken log2 fold change

[[record]]
residues = "RRIRQRPPRLPRPRPRPLMHPRP"
measured_target = "Escherichia coli TOP10"
measured_result = -0.00724

[[record]]
residues = "RRIRIRPPRLPRPRPRPFGGPRP"
measured_target = "Escherichia coli TOP10"
measured_result = -0.103

[[record]]
residues = "RRIRSRPPRLPRPRPRPWVKPRP"
measured_target = "Escherichia coli TOP10"
measured_result = 0.194

[[record]]
residues = "RRIRVRPPRLPRPRPRPPIEPRP"
measured_target = "Escherichia coli TOP10"
measured_result = -0.115

[[record]]
residues = "RRIRLRPPRLPRPRPRPYGKPRP"
measured_target = "Escherichia coli TOP10"
measured_result = -0.242

[[record]]
residues = "RRIRKRPPRLPRPRPRPKATPRP"
measured_target = "Escherichia coli TOP10"
measured_result = 0.0944

[[record]]
residues = "RRIRTRPPRLPRPRPRPSLEPRP"
measured_target = "Escherichia coli TOP10"
measured_result = -0.0452

[[record]]
residues = "RRIRARPPRLPRPRPRPRIGPRP"
measured_target = "Escherichia coli TOP10"
measured_result = 0.267

[[record]]
residues = "RRIRQRPPRLPRPRPRPHFWPRP"
measured_target = "Escherichia coli TOP10"
measured_result = -0.0983

[[record]]
residues = "RRIRIRPPRLPRPRPRPMFHPRP"
measured_target = "Escherichia coli TOP10"
measured_result = -0.517

[[record]]
residues = "RRIRQRPPRLPRPRPRPLKYPRP"
measured_target = "Escherichia coli TOP10"
measured_result = -0.0559

[[record]]
residues = "RRIRPRPPRLPRPRPRPCLTPRP"
measured_target = "Escherichia coli TOP10"
measured_result = -0.0809

[[record]]
residues = "RRIRFRPPRLPRPRPRPHPVPRP"
measured_target = "Escherichia coli TOP10"
measured_result = -0.141

[[record]]
residues = "RRIRIRPPRLPRPRPRPIMNPRP"
measured_target = "Escherichia coli TOP10"
measured_result = -1.27

[[record]]
residues = "RRIRKRPPRLPRPRPRPFVEPRP"
measured_target = "Escherichia coli TOP10"
measured_result = 0.0241

[[record]]
residues = "RRIRVRPPRLPRPRPRPGIIPRP"
measured_target = "Escherichia coli TOP10"
measured_result = 0.136

[[record]]
residues = "RRIRQRPPRLPRPRPRPMTTPRP"
measured_target = "Escherichia coli TOP10"
measured_result = 3.23

[[record]]
residues = "RRIRFRPPRLPRPRPRPHWIPRP"
measured_target = "Escherichia coli TOP10"
measured_result = -0.151

[[record]]
residues = "RRIRTRPPRLPRPRPRPLLHPRP"
measured_target = "Escherichia coli TOP10"
measured_result = 0.0651


Just for reference, the supplement of paper PMC9112550 is where these values come from.
